- study.target: Melanin-concentrating hormone receptor 1 (Homo sapiens)
- procedure.details: Antagonist activity at human MCHR1 expressed in CHO-K1 cells assessed as inhibition of MCH peptide mediated response measuring [3H]inositol phosphate production by IP3-SPA-YSI assay
- Type: functional, cell-based
Could you please report measured IC50 for the items listed next?
Give bare numbers, in nM.

Solved cases below.
## Input Identify measured IC50 associated with Cc1nc(N2CCC(NC(=O)NC(C)C)CC2)nc2ccc(NC(=O)COc3ccc(Cl)cc3)cc12
## Output 4

## Input Identify measured IC50 associated with Cc1nc(N2CCC(N3CCCC3=O)CC2)nc2ccc(NC(=O)COc3ccc(OC(F)(F)F)cc3)cc12
## Output 4

As a next step, examine the compound that follows.
## Input Identify measured IC50 associated with CCC1(O)CCN(c2nc(C)c3cc(NC(=O)COc4ccc(Cl)cc4)ccc3n2)CC1
## Output 384

###

- study.target: Melanin-concentrating hormone receptor 1 (Homo sapiens, UniProt Q99705)
- Sequence (Q99705 whole entry): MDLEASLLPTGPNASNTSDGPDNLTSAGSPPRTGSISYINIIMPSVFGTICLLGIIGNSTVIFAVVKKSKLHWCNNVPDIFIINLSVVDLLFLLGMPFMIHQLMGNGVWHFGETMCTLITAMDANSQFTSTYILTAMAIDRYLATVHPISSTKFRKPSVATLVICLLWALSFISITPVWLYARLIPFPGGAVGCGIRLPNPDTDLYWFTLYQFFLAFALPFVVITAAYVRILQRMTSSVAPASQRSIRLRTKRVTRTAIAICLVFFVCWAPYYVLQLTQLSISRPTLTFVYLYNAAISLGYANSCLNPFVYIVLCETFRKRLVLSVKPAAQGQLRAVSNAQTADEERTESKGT
- procedure.details: biochemical
- Format: cell-based, CHO-K1
- Description: Displacement of [125I]MCH from human recombinant MCHR1 expressed in CHO-K1 cell membranes after 2 hrs by SPA binding assay
Could you please report measured IC50 for the items listed next?
Give bare numbers, in nM.

## Input Identify measured IC50 associated with Cc1nc(N2CCC(O)(c3ccc(F)cn3)CC2)nc2ccc(NC(=O)COc3ccc(OC(F)(F)F)cc3)cc12
## Output 213

## Input Identify measured IC50 associated with Cc1nc(N2CCC(N3CCCC3=O)CC2)nc2ccc(NC(=O)COc3ccc(OC(F)(F)F)cc3)cc12
## Output 19

## Input Identify measured IC50 associated with Cc1nc(N2CCN(C(=O)C3CCCCC3)CC2)nc2ccc(NC(=O)COc3ccc(Cl)cc3)cc12
## Output 116

Dear colleague, could you please provide IC50 for the compounds listed below?
1. Cc1nc(N2CCN(C(=O)C(C)C)CC2)nc2ccc(NC(=O)COc3ccc(OC(F)(F)F)cc3)cc12
2. Cc1nc(N2CCC(O)(C3CCC3)CC2)nc2ccc(NC(=O)COc3ccc(OC(F)(F)F)cc3)cc12
3. Cc1nc(N2CCC(NC(=O)NC(C)C)CC2)nc2ccc(NC(=O)COc3ccc(Cl)cc3)cc12

## Output
36
79
7

Dear colleague, could you please provide IC50 for the compounds listed below?
1. COCC(=O)N1CCN(c2nc(C)c3cc(NC(=O)COc4ccc(Cl)cc4)ccc3n2)CC1
2. Cc1nc(N2CCC(N)CC2)nc2ccc(NC(=O)COc3ccc(Cl)cc3)cc12
3. Cc1nc(N2CCN(C3CC3)CC2)nc2ccc(NC(=O)COc3ccc(Cl)cc3)cc12

## Output
1. 215
2. 150
3. 270

Dear colleague, could you please provide IC50 for the compounds listed below?
1. Cc1nc(N2CCC(O)CC2)nc2ccc(NC(=O)COc3ccc(Cl)cc3)cc12
2. Cc1nc(N2CCC(O)(c3ccc(F)cc3)CC2)nc2ccc(NC(=O)COc3ccc(OC(F)(F)F)cc3)cc12
3. Cc1nc(N2CCN(C(=O)C3CC3)CC2)nc2ccc(NC(=O)COc3ccc(Cl)cc3)cc12
4. Cc1nc(N2CCC(C(=O)NC(C)C)CC2)nc2ccc(NC(=O)COc3ccc(OC(F)(F)F)cc3)cc12

## Output
1. 150
2. 150
3. 251
4. 17

Source: ChEMBL document CHEMBL2016458
